# ASSAY TARGET: horseradish peroxidase (HRP) tagged delF508-CFTR (Homo sapiens, UniProt P13569, DEL508-508)
# Construct: expressed in transfected cells
# Sequence (P13569 with tags, fused parts or gaps DEL508-508): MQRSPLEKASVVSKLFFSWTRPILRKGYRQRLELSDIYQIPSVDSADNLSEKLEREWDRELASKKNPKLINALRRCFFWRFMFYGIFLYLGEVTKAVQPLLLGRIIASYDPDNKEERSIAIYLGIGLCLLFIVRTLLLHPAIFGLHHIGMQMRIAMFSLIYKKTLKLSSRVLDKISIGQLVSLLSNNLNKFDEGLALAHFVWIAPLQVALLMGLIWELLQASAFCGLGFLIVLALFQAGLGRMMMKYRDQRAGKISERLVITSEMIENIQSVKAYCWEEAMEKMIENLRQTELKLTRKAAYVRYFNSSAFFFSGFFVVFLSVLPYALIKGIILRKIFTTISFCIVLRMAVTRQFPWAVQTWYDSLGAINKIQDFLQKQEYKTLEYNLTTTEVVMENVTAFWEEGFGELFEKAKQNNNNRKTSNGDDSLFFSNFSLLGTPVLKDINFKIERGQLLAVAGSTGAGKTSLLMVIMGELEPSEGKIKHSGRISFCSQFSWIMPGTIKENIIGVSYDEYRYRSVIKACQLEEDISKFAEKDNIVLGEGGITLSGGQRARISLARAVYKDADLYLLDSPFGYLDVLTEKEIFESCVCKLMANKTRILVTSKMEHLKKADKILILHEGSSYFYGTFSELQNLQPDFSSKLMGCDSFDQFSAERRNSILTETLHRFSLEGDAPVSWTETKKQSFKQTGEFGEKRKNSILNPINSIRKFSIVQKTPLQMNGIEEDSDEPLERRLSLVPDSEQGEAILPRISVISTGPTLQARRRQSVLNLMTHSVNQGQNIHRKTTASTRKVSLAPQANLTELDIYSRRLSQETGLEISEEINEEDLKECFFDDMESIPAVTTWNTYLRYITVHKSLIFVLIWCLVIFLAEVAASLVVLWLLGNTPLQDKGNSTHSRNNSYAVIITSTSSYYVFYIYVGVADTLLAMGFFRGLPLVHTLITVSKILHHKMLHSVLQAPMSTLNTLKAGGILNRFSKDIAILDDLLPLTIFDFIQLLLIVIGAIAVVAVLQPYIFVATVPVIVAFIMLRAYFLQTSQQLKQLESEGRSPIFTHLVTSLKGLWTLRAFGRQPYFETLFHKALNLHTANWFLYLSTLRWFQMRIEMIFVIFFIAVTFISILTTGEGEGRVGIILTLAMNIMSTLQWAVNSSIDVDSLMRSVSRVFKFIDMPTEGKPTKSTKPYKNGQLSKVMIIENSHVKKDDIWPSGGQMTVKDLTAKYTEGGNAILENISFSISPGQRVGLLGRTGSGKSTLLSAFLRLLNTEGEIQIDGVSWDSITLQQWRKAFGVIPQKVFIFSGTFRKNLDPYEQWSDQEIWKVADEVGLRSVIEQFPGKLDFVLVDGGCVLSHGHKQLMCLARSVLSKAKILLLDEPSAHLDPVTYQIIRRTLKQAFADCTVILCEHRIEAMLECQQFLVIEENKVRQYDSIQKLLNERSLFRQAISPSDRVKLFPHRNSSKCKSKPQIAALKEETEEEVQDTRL
# MEASUREMENT DESCRIPTION: Measurement of delF508-CFTR-HRP surface expression in CFBE41o- cells;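 as to DelF508-CFTR-HRP Amax %: percent efficacy relative to reference corrector lumacaftor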
# Format: cell-based
# RUN PARAMETERS: CFBE41o- cells; surface expression Amax; read-out: DelF508-CFTR-HRP Amax %
Emax less than 500% is t; Emax greater than or equal to 500% is f.

{"COMPOUND": "Cc1ccccc1-c1nc(NS(=O)(=O)c2cccc(N3[C@@H]4CC[C@H]3[C@@H](C(=O)O)C4)n2)ccc1C(F)(F)F [Example 462]", "LABEL CLASS": "t"}
{"COMPOUND": "Cc1c(F)cccc1-c1nc(NS(=O)(=O)c2cccc(N3CCC[C@](C)(C(=O)O)C3)n2)ccc1C(F)(F)F [Example 436]", "LABEL CLASS": "t"}

(Q) Lab log: compare recorded Emax with 500%; is it strictly lower for CCc1ccccc1-c1nc(S(=O)(=O)Nc2cccc(N3CCC(C)(C(=O)O)CC3)n2)ccc1C(F)(F)F [Example 380] ?
(A) t

(Q) Record COc1ccc(NS(=O)(=O)c2cccc(N3CCC[C@@](C)(C(=O)O)C3)n2)nc1-c1ccccc1C1CC1 [Example 408] : is its Emax strictly below 500%?
(A) t

(Q) Say whether its Emax is strictly beneath 500%. Entry: CC(C)Oc1ccc(Cl)cc1-c1nc(NS(=O)(=O)c2cccc(N3CCC(C)(C(=O)O)CC3)n2)ccc1C(F)(F)F [Example 427]
(A) t

(Q) Confirm or reject: Emax of COc1ccc(Cl)cc1-c1nc(NS(=O)(=O)c2cccc(N3CCC[C@@](C)(C(=O)O)C3)n2)ccc1C(F)(F)F [Example 455] lies strictly below 500%
(A) f

====

# ASSAY TARGET: horseradish peroxidase (HRP) tagged delF508-CFTR (Homo sapiens, UniProt P13569, DEL508-508)
# Construct: expressed in transfected cells
# MEASUREMENT DESCRIPTION: Measurement of delF508-CFTR-HRP surface expression in CFBE41o- cells
# Format: cell-based
# RUN PARAMETERS: delF508-CFTR-HRP surface expression, CFBE41o- cells; read-out: DelF508-CFTR-HRP EC50
Counter-ions that a name gives are not always drawn.
A collection of molecules and their measured pEC50
Note on units: pEC50 is unitless, being -log10 of a concentration expressed in mol/L.

{"MOLECULE": "Cc1cccc(C)c1-c1nc(NS(=O)(=O)c2cccc(O[C@@H]3CO[C@H](CO)C3)n2)ccc1Cl", "OBSERVED PROPERTY": "pEC50", "TEST RESULT": 5.77}
{"MOLECULE": "Cc1cccc(C)c1-c1cc(C(F)(F)F)cc(NS(=O)(=O)c2cccc(N3CC(O)C3)n2)n1", "OBSERVED PROPERTY": "pEC50", "TEST RESULT": 5.89}

// COc1ccc(Cl)c(-c2nc(NS(=O)(=O)c3cccc(N4CCNCC4)n3)ccc2Cl)c1 [Example 158, hydrochloride] : pEC50 value = 5.38

Query Cc1ccccc1-c1nc(NS(=O)(=O)c2cccc(N[C@@H]3CCNC[C@H]3O)n2)ccc1C(F)(F)F [Example 114, Hydrochloride] yields pEC50 of 5.44

// sample Cc1ccccc1-c1nc(NS(=O)(=O)c2cccc(N[C@@H]3CCNC[C@@H]3O)n2)ccc1C(F)(F)F (relative stereo) [Example 113, Hydrochloride] , its pEC50 was 5.37

Just so you know, measured pEC50 for "Cc1c(C#N)cccc1-c1nc(NS(=O)(=O)c2cccc(N)n2)ccc1Cl" came out at 5.73

Quick note, pEC50 for "Cc1ccc(F)cc1-c1nc(NS(=O)(=O)c2cccc(N3CC(O)(CO)C3)n2)ccc1Cl" landed at 5.70

====

# ASSAY TARGET: horseradish peroxidase (HRP) tagged delF508-CFTR (Homo sapiens, UniProt P13569, DEL508-508)
# Construct: expressed in transfected cells
# MEASUREMENT DESCRIPTION: Measurement of delF508-CFTR-HRP surface expression in CFBE41o- cells;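 as to DelF508-CFTR-HRP Amax %: percent efficacy relative to reference corrector lumacaftor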
# Format: cell-based
# RUN PARAMETERS: delF508-CFTR-HRP surface expression, CFBE41o- cells; read-out: DelF508-CFTR-HRP Amax %
Structures can show the parent of a compound that is named as a salt.
Parameter class (string): assigned from measured Emax. Ranges: lo: < 200%; mid: ≥ 200% and < 500%; hi: ≥ 500%

Before answering, review these 4 worked examples.
{"MOLECULE": "Cc1cccc(F)c1-c1nc(NS(=O)(=O)c2cccc(N)n2)ccc1Cl [Example 31]", "LABEL CLASS": "mid"}
{"MOLECULE": "Cc1ccccc1-c1nc(NS(=O)(=O)c2cccc(N3CCO[C@@H](C(=O)O)C3)n2)ccc1C(F)(F)F [Example 339]", "LABEL CLASS": "lo"}
{"MOLECULE": "Cc1ccccc1-c1nc(NS(=O)(=O)c2cccc(N3CC(O)C3)n2)ccc1C(F)(F)F [Example 233]", "LABEL CLASS": "hi"}
{"MOLECULE": "Cc1c(F)cccc1-c1nc(NS(=O)(=O)c2cccc(N3CCC[C@H](C(=O)O)C3)n2)ccc1C(F)(F)F [Example 360]", "LABEL CLASS": "hi"}

(Q) Record Cc1ccccc1-c1nc(NS(=O)(=O)c2cccc(N3CCN(C4COC4)CC3)n2)ccc1C(F)(F)F [Example 187] — which class?
(A) hi

(Q) Could you place Cc1ccc(F)cc1-c1nc(NS(=O)(=O)c2cccc(N3CCC34CNC4)n2)ccc1Cl [Example 310] in its proper category? Many thanks.
(A) lo

(Q) Class for Cc1ccccc1-c1nc(NS(=O)(=O)c2cccc(N3CCC[C@@H](N)C3)n2)ccc1C(F)(F)F [Example 102, Hydrochloride] ?
(A) hi

(Q) // return the class label for Cc1ccc(F)cc1-c1nc(NS(=O)(=O)c2cccc(N[C@@H]3CCOC[C@@H]3O)n2)ccc1Cl [Example 272]
(A) hi

====

# ASSAY TARGET: horseradish peroxidase (HRP) tagged delF508-CFTR (Homo sapiens, UniProt P13569, DEL508-508)
# Construct: expressed in transfected cells
# MEASUREMENT DESCRIPTION: Measurement of delF508-CFTR-HRP surface expression in CFBE41o- cells;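 as to DelF508-CFTR-HRP Amax %: percent efficacy relative to reference corrector lumacaftor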
# Assay type: cell-based
# RUN PARAMETERS: delF508-CFTR-HRP surface expression, CFBE41o- cells; read-out: DelF508-CFTR-HRP Amax %
Counter-ions that a name gives are not always drawn.
Entries and their measured Emax follow.
Please state the figure in %; there is no need to write the unit.

Input "Cc1ccc(F)cc1-c1nc(NS(=O)(=O)c2cccc(O[C@@H]3COC[C@@H]3O)n2)ccc1Cl" . Output Emax: 450

Emax in this record for "Cc1ccc(OC(F)(F)F)cc1-c1nc(NS(=O)(=O)c2cccc(N)n2)ccc1C(F)(F)F" : 124

Lab note: measured Emax of "Cc1cc(F)cc(C)c1-c1nc(NS(=O)(=O)c2cccc(N)n2)ccc1Cl" was 421

For record Cc1cccc(C)c1-c1nc(NS(=O)(=O)c2cccc(O[C@@H]3COC[C@@H]3O)n2)ccc1Cl (racemic) the listed Emax is 616

For this molecule ( "Cc1c(F)cccc1-c1nc(NS(=O)(=O)c2cccc(N3CCC(C)(C(=O)O)CC3)n2)ccc1Cl" ), measured Emax is 203

Record summary for "Nc1cccc(S(=O)(=O)Nc2ccc(C(F)(F)F)c(-c3ccccc3C(F)(F)F)n2)n1" : reported Emax = 505

# Emax (molecule: "Cc1cc(F)ccc1-c1nc(NS(=O)(=O)c2cccc(N)n2)ccc1Cl" ) is 386

Form field Emax, entry Cc1ccccc1-c1nc(NS(=O)(=O)c2cccc(NC3CCC(C(=O)O)CC3)n2)ccc1C(F)(F)F (stereo not shown) : 554

The molecule listed as "Cc1cc(F)ccc1-c1nc(NS(=O)(=O)c2cccc(N3CC(O)C3)n2)ccc1C(F)(F)F" has a reported Emax of 465

Given item Cc1ccc(F)cc1-c1nc(NS(=O)(=O)c2cccc(N3CCN[C@H](C)C3)n2)ccc1C(F)(F)F [Example 176, Hydrochloride] , the value recorded as its Emax is 529

Reported Emax ( "Cc1cc(C)c(-c2nc(NS(=O)(=O)c3cccc(N)n3)ccc2Cl)c(C)c1" ) = 412

Per the record, "CC1(C(=O)O)CCN(c2cccc(S(=O)(=O)Nc3ccc(Cl)c(-c4ccc(F)cc4Cl)n3)n2)CC1" has Emax of 152

Short answer for "CCOC(=O)C1(C)CCN(c2cccc(S(=O)(=O)Nc3ccc(Cl)c(-c4cc(F)ccc4C)n3)n2)CC1" : Emax was 662

Emax for "CC(C)c1ccccc1-c1nc(NS(=O)(=O)c2cccc(N)n2)ccc1Cl" is 332

Kindly note the recorded Emax for "Cc1ccccc1-c1nc(NS(=O)(=O)c2cccc(N)n2)ccc1C(F)(F)F" , which is 520

Noted for Cc1ccc(F)cc1-c1nc(NS(=O)(=O)c2cccc(N3CCNCC3)n2)ccc1Cl [Example 193, hydrochloride] : its Emax reads 385
